Test system: A375 cells (malignant melanoma)
Assay: Cell proliferation, CellTiter-Glo luminescence, A375
Assay type: cell-based
Settings: Homo sapiens, A-375, read-out: TOP1i Compound Potency EC50, A375
Text: Proliferation of Calu-6 cells (lung adenocarcinoma) and A375 cells (malignant melanoma) were quantified using CellTiter-Glo® luminescence.
MEASURED_ENDPOINT: EC50 (nM)
Only the number, expressed in nM, is required.

## Input Please report the recorded EC50 for CC[C@@]1(O)C(=O)OCc2c1cc1n(c2=O)Cc2c-1nc1cc3c(cc1c2C12CC(N)(C1)C2)OCO3 [Example 1G] .
## Output 0.5
